# Target Under Test: 20Si human proteasome (Homo sapiens, UniProt P28062)
# Construct: purchased Boston Biochem
# Assay Explanation: Cell-free inhibition of CT-like activity of 20Si proteasome
# Type: biochemical
# Experimental Parameters: 30 min pre-incubation, 37 °C, pH 7.5, N-Suc-LLVT-AMC 0.080 mM; read-out: IC50 on 20Si isoform (CT-like activity)
pIC50: −log10 of the molar value.

Compound | Target Under Test | pIC50
CCCCCC/C=C/C=C\CCCCCCCC(=O)O [c9,t11-CLA, cis9,trans11 (c9,t11-CLA)] | 20Si human proteasome (Homo sapiens, UniProt P28062) | 5.19
CCCCC/C=C\C=C\CCCCCCCCC(=O)O [t10,c12-CLA, trans10,cis12 (t10,c12-CLA)] | 20Si human proteasome (Homo sapiens, UniProt P28062) | 5.96
